pIC50: −log10 of the molar value.
What follows is a collection of pIC50 values obtained with Syk (Homo sapiens).

// below: answered compounds
COc1cc(-c2cc3nccc(-c4ccc(N)cc4)c3o2)cc(OC)c1OC = > 6.52
Cn1cc(-c2ccnc3cc(-c4ccc5c(c4)OCCO5)oc23)cn1 = 5.52 to 6.52
CCOC(=O)Cn1cc(-c2ccnc3cc(-c4cc(OC)c(OC)c(OC)c4)oc23)cn1 = > 6.52
Cn1cc(-c2ccnc3cc(-c4ccc5nc[nH]c5c4)oc23)cn1 = > 6.52
COc1cc(-c2cc3nccc(Nc4ccc5cn[nH]c5c4)c3o2)cc(OC)c1OC = 5.52 to 6.52

q: So what's the measured pIC50 for this one? `COc1cc(-c2cc3nccc(-c4ccc(C(=O)O)cc4)c3o2)cc(OC)c1OC`
a: > 6.52

q: Which measured pIC50 value corresponds to `COc1cc(-c2cc3nccc(-c4ccccc4C(C)C)c3o2)cc(OC)c1OC` ?
a: 5.52 to 6.52

q: What value of pIC50 has been recorded for this entry: `Cc1c(Nc2ccnc3cc(-c4ccc(OCCCN(C)C)cc4)oc23)ccc2[nH]ccc12`
a: 5.52 to 6.52

###

Syk (Homo sapiens, UniProt P43405): reported IC50 for various compounds.

COc1cc(-c2cc3nccc(-c4ccc5[nH]ccc5c4)c3o2)cc(OC)c1OC = 0.3 to 3 µM
COc1ccc(-c2cc3nccc(Nc4ccc5[nH]ccc5c4C)c3o2)cc1OC = < 0.3 µM
COc1cc(-c2cc3nccc(-c4ccnc(NCC5CCCNC5)c4)c3o2)cc(OC)c1OC (stereo not drawn) = < 0.3 µM
CN1CCN(c2cc(-c3cc4nccc(-c5ccnc(N6CCN(C)CC6)c5)c4o3)ccn2)CC1 = 3 to 50 µM

q: So what IC50 did Cn1cc(-c2ccnc3cc(-c4ccc(OCC(O)CN5CCOCC5)cc4)oc23)cn1 (stereo not drawn) get with Syk (Homo sapiens, UniProt P43405)?
a: 0.3 to 3 µM

q: Record `Cn1cc(-c2ccnc3cc(-c4ccc(S(C)(=O)=O)cc4)oc23)cn1` : what is its IC50 with Syk (Homo sapiens, UniProt P43405)?
a: 0.3 to 3 µM

###

# testedTarget: UniProtKB P43405
Form field: IC50 (one value per entry).

Here's what some known entries look like.
COc1cc(-c2cc3nccc(-c4ccc5[nH]cnc5c4)c3o2)cc(OC)c1OC [Compound C60] = < 300 nM
c1cc(-c2ccc3c(c2)OCCO3)c2oc(-c3ccc4c(c3)OCCO4)cc2n1 [Compound B37] = 3000 to 50000 nM
COc1cc(-c2cc3nccc(-c4cccc(N)c4)c3o2)cc(OC)c1OC [Compound A55] = < 300 nM
COc1ccc(OC)c(-c2cc3nccc(-c4cccc(C(=O)N[C@@H]5CCCC[C@@H]5N)c4)c3o2)c1 [Compound C178] = < 300 nM
COc1ccc(-c2cc3nccc(-c4ccc(OC)c(OC)c4)c3o2)cc1OC [Compound B39] = 300 to 3000 nM

q: What value of IC50 has been reported for the following compound? COc1cccc(-c2cc3nccc(Nc4ccc5[nH]ccc5c4C)c3o2)c1 [Compound B57]
a: 300 to 3000 nM

q: // IC50 lookup, key: COc1cc(-c2cc3nccc(-c4c[nH]c5ccccc45)c3o2)cc(OC)c1OC [Compound A25]
a: 300 to 3000 nM

q: Name the reported IC50 value associated with the compound Cn1cc(-c2ccnc3cc(-c4ccc5cc[nH]c5c4)oc23)cn1 [Compound C19]
a: < 300 nM
